clearance for assorted compounds
protocol.summary: Pharmacokinetic studies in Sprague Dawley rats
Format: in vivo
experimental.context: male, Sprague-Dawley, rat, plasma, iv, 3 mg/kg
State the answer as a number, implicitly in mL/min/kg.

The compound identified as CCc1cc(C(=O)NC)c2nccc(N3CCc4c(cc(Cn5ccnc5)cc4-c4cn(C)nc4C(F)(F)F)C3=O)c2c1 [Compound 10] registered its clearance at 40

New cases:
The compound identified as CCc1cc(OC)c2nccc(N3CCc4c(cc(Cn5ccnc5)cc4-c4cn(C)nc4C(F)(F)F)C3=O)c2c1 [Compound 9] registered its clearance at 53

* * *

protocol.summary: Kinetic solubility assay
Assay type: physicochemical
experimental.context: phosphate-buffered saline, pH 7.4, aqueous buffer, kinetic from dmso stock
recorded.metric: solubility kinetic at 1 h (µM)
State the answer as a number, implicitly in µM.

Consider the reported solubility kinetic at 1 h for these compounds:
The compound identified as COc1ccc2nccc(N3CCc4c(cc(Cn5ccnc5)cc4-c4cn(C)nc4C(F)(F)F)C3=O)c2c1 registered its solubility kinetic at 1 h at 73

The compound identified as COc1cc(OC)c2nccc(N3CCc4c(cc(Cn5ccnc5)cc4-c4cn(C)nc4C(F)(F)F)C3=O)c2c1 registered its solubility kinetic at 1 h at 68

Turning now to a further compound:
The compound identified as Cc1ccc2cncc(N3CCc4c(cc(Cn5ccnc5)cc4-c4cn(C)nc4C(F)(F)F)C3=O)c2c1 registered its solubility kinetic at 1 h at 70

Cited source for all entries: paper PMC9910433
